The measured values listed here are drawn from paper PMC11635510.

AChE (Homo sapiens) pIC50 data
Sequence (P22303 32-614): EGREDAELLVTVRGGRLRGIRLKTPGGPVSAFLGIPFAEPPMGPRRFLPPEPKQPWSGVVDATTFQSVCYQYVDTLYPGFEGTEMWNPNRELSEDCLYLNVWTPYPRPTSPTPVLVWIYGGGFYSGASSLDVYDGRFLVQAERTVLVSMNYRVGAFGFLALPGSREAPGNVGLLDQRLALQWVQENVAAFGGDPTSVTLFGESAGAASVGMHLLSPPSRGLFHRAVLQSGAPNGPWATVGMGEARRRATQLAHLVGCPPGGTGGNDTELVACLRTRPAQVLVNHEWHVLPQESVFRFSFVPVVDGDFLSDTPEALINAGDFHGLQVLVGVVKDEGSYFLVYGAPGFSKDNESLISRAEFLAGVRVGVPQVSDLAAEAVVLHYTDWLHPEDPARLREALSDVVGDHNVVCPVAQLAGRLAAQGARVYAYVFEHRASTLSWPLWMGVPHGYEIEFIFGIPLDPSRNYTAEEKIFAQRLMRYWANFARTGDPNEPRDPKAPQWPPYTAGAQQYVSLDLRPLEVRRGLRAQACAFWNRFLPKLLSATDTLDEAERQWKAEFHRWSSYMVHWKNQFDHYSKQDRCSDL
On this scale, pIC50 is minus log10 of a concentration expressed in M (mol/L).

Consider the following illustrative entries.
O=C(NCc1ccc[n+](Cc2ccc(Br)cc2)c1)c1ccc(CN2C(=O)c3ccccc3C2=O)cc1.[Br-] : 6.59
O=C(NCc1ccc[n+](Cc2cccc(F)c2)c1)c1ccc(CN2C(=O)c3ccccc3C2=O)cc1.[Cl-] : 5.40

Okay, next one:
**Query** Lab request: please report pIC50 under test system AChE (Homo sapiens) for `CCCCC[n+]1cccc(CNC(=O)c2ccc(CN3C(=O)c4ccccc4C3=O)cc2)c1`
**Result** 5.20

###

- system.name: BChE (Homo sapiens, UniProt P06276)
- Sequence (P06276 29-602, species assumed): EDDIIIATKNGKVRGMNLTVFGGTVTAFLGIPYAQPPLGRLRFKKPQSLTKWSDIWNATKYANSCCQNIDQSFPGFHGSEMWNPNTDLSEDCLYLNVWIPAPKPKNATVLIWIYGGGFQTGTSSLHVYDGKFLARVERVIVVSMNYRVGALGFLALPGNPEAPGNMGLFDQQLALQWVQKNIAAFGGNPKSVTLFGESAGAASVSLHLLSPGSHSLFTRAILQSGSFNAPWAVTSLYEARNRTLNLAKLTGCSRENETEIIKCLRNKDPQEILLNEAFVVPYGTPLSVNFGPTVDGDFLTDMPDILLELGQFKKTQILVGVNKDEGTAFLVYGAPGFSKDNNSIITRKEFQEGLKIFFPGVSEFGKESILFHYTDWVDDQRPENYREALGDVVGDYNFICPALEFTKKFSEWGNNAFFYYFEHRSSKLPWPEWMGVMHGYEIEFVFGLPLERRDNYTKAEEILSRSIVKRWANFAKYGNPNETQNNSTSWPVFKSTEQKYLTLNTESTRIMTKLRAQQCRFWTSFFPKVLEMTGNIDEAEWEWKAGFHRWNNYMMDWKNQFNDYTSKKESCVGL
parameter.measured: Ki (nM)
Numeric answer only, unit nM assumed.

**Query** Field request: Ki | item: `O=C(NCc1ccc[n+](Cc2cccc(F)c2)c1)c1ccc(CN2C(=O)c3ccccc3C2=O)cc1.[Cl-]`
**Result** 130
